Source of measurements: patent US20040176431A1

Measured inhibition at 0.03 µM, listed per entry.
- Target or test system: CDK4/cyclin D3 (Homo sapiens)
- Construct: made in house; host or cells: insect cells (baculovirus co-infection)
- Sequence (P11802 whole entry): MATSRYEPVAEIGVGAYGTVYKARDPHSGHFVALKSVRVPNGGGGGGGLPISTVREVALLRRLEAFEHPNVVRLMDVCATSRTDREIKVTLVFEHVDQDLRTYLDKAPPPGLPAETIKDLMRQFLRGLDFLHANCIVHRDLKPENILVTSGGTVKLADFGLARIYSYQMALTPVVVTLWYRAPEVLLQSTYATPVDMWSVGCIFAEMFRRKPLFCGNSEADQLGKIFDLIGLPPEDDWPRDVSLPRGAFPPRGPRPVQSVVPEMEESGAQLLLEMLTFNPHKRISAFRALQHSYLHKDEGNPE
- Sequence (P30281 1-264 partner limits assumed): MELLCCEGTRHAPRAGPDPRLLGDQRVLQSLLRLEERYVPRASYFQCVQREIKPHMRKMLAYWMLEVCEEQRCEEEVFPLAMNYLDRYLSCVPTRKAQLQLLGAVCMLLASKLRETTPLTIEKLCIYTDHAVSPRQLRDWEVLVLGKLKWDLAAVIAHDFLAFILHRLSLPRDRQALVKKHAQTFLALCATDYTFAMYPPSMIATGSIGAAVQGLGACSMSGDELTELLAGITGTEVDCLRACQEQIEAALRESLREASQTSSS
- Protocol summary: Inhibition of CDK4/Cyclin D retinoblastoma kinase activity
- Assay type: biochemical
- Condition details: test compound at 0.03 (unit cell empty, head line shifted; μM); read-out: % Inhib CDK4/D @ 0.03
Put down the number, then write its unit next to it.

Sample answers from the record:
[in] What inhibition at 0.03 µM value was documented for this compound, Nc1nc(Nc2cccc([S+]([O-])CC(=O)Nc3ccccc3)c2)sc1C(=O)c1c(Cl)cccc1Cl (stereo not drawn) ?
[out] 16%

[in] Another compound to check: Nc1nc(Nc2cccc([S+]([O-])CCO)c2)sc1C(=O)c1c(Cl)cccc1Cl (stereo not drawn)
[out] 33%

[in] Another compound to check: CCCSc1cccc(Nc2nc(N)c(C(=O)c3c(Cl)cccc3Cl)s2)c1
[out] 6.5%

[in] Another compound to check: Nc1nc(Nc2ccc([S+]([O-])CCCO)cc2)sc1C(=O)c1c(Cl)cccc1Cl (stereo not drawn)
[out] 3.7%

[in] Another compound to check: CCCSc1ccc(Nc2nc(N)c(C(=O)c3c(Cl)cccc3Cl)s2)cc1
[out] -10%

[in] Another compound to check: CN(C)CCC[S+]([O-])c1cccc(Nc2nc(N)c(C(=O)c3c(Cl)cccc3Cl)s2)c1 (stereo not drawn)
[out] 12%

[in] Another compound to check: CC(C)CC[S+]([O-])c1ccc(Nc2nc(N)c(C(=O)c3c(Cl)cccc3Cl)s2)cc1 (stereo not drawn)
[out] -4.4%

[in] Another compound to check: COC(=O)CSc1ccc(Nc2nc(N)c(C(=O)c3c(Cl)cccc3Cl)s2)cc1
[out] 9%

[in] Another compound to check: COC(=O)/C=C/CSc1cccc(Nc2nc(N)c(C(=O)c3c(Cl)cccc3Cl)s2)c1
[out] 23%

[in] Another compound to check: CC(C)CCOC(=O)C[S+]([O-])c1cccc(Nc2nc(N)c(C(=O)c3c(Cl)cccc3Cl)s2)c1 (stereo not drawn)
[out] 16%

Next:
[in] What inhibition at 0.03 µM value was documented for this compound, CC(C)OC(=O)CSc1cccc(Nc2nc(N)c(C(=O)c3c(Cl)cccc3Cl)s2)c1 ?
[out] -3.8%

[in] Another compound to check: NC(=O)C[S+]([O-])c1ccc(Nc2nc(N)c(C(=O)c3c(Cl)cccc3Cl)s2)cc1 (stereo not drawn)
[out] 38%

[in] Another compound to check: Nc1nc(Nc2cccc(SCCCO)c2)sc1C(=O)c1c(Cl)cccc1Cl
[out] 32%

[in] Another compound to check: C=CCC[S+]([O-])c1cccc(Nc2nc(N)c(C(=O)c3c(Cl)cccc3Cl)s2)c1 (stereo not drawn)
[out] 7.5%

[in] Another compound to check: Nc1nc(Nc2ccc([S+]([O-])CCN3CCCC3)cc2)sc1C(=O)c1c(Cl)cccc1Cl (stereo not drawn)
[out] -16%

[in] Another compound to check: CN1CCCC1CC[S+]([O-])c1cccc(Nc2nc(N)c(C(=O)c3c(Cl)cccc3Cl)s2)c1 (stereo not drawn)
[out] 17%

[in] Another compound to check: CC(C)OC(=O)CCSc1cccc(Nc2nc(N)c(C(=O)c3c(Cl)cccc3Cl)s2)c1
[out] 13%

[in] Another compound to check: Nc1nc(Nc2cccc(SCCO)c2)sc1C(=O)c1c(Cl)cccc1Cl
[out] 16%

[in] Another compound to check: Nc1nc(Nc2cccc(SCCN3CCCC3)c2)sc1C(=O)c1c(Cl)cccc1Cl
[out] 20%

[in] Another compound to check: Nc1nc(Nc2cccc([S+]([O-])CC3CNC(=O)O3)c2)sc1C(=O)c1c(Cl)cccc1Cl (stereo not drawn)
[out] 19%

[in] Another compound to check: Nc1nc(Nc2cccc([S+]([O-])CC3CC3)c2)sc1C(=O)c1c(Cl)cccc1Cl (stereo not drawn)
[out] 14%

[in] Another compound to check: CC(CSc1ccc(Nc2nc(N)c(C(=O)c3c(Cl)cccc3Cl)s2)cc1)CN(C)C (stereo not drawn)
[out] 8.1%

[in] Another compound to check: CC(=O)OCC[S+]([O-])c1ccc(Nc2nc(N)c(C(=O)c3c(Cl)cccc3Cl)s2)cc1 (stereo not drawn)
[out] 16%
